Listed below: log10(IC50) values for each entry.
Molecular target: Integrin alpha-V/beta-3 (Homo sapiens, UniProt P05106+P06756)
Sequence (P05106 27-788 limits assumed): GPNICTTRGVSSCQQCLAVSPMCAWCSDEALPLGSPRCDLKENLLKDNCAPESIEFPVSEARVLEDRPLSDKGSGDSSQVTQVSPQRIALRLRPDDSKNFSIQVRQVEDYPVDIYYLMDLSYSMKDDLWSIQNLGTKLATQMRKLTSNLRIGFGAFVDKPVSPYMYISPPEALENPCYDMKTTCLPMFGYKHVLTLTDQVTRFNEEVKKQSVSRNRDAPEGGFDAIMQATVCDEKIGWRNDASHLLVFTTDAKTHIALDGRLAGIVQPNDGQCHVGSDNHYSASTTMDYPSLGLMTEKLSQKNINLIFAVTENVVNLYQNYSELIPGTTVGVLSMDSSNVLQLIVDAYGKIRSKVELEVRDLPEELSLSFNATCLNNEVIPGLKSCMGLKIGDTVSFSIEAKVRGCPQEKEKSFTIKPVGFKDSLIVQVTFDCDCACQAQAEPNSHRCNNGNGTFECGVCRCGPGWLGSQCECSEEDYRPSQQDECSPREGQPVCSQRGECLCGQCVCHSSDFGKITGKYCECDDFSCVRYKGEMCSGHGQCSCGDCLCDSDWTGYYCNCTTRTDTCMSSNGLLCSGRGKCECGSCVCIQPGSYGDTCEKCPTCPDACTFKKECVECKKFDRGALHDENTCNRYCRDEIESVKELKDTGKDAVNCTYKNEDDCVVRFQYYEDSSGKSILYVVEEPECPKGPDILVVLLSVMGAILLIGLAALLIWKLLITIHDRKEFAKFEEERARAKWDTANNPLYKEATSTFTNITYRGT
Sequence (P06756 31-889 limits assumed): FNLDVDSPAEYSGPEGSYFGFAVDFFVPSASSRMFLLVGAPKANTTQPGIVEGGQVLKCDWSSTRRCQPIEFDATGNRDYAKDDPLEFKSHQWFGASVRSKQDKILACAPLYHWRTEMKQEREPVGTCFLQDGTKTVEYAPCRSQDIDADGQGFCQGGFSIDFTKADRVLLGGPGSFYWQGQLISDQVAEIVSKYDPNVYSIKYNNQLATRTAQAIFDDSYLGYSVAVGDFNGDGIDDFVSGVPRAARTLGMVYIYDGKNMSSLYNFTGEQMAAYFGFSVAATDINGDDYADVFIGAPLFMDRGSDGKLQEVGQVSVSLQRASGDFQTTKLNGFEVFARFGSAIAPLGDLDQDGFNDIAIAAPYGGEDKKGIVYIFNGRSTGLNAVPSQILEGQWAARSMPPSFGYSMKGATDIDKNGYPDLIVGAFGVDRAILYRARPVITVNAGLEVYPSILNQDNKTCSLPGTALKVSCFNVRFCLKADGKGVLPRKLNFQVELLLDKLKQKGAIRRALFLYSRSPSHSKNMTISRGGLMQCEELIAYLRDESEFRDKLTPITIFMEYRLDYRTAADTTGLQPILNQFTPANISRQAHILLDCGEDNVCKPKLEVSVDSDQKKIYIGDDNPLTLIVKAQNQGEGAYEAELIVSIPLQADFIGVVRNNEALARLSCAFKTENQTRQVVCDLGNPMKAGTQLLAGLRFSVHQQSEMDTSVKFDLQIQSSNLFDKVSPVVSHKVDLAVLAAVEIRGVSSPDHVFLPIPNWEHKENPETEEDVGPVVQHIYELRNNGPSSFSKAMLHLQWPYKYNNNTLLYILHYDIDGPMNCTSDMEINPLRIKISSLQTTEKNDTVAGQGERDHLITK
Sequence (P06756 891-1048 limits assumed): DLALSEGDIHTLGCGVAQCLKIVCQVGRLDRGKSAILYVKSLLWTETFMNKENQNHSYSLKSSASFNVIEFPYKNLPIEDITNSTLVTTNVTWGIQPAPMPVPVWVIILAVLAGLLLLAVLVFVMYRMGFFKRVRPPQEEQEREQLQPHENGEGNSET
Test: Inhibitory activity against vitronectin receptor (alpha V beta 3)
Reported metric: log10(IC50) (log10 of the value in µM)

                                   compound  reported_metric  result_value
0  N=C(N)Nc1cccc(C(=O)NNC(=O)CC(CC(=O)O)c2ccccc2)c1 (stereo not drawn)      log10(IC50)         -1.82
1  Cc1ccnc(NCCCCC(=O)NNC(=O)CC(CC(=O)O)c2cc(Cl)cc(Cl)c2)c1 (stereo not drawn)      log10(IC50)         -2.05
2  COc1ccc(C(CC(=O)O)CC(=O)NNC(=O)CCCCNc2cc(C)ccn2)cc1 (stereo not drawn)      log10(IC50)         -1.66
3  COc1ccc(C(CC(=O)O)CC(=O)NNC(=O)c2cccc(N=C(C)N)c2)cc1 (stereo not drawn)      log10(IC50)         -1.43
4  Cc1ccnc(NCCCCC(=O)NNC(=O)CC(CC(=O)O)c2ccc(Br)cc2)c1 (stereo not drawn)      log10(IC50)         -2.22
5  NC(N)=Nc1cccc(C(=O)NNC(=O)NC(CC(=O)O)c2cccc3ccccc23)c1 (stereo not drawn)      log10(IC50)         -1.57
6     Cc1ccnc(NCCCCC(=O)NNC(=O)NCCC(=O)O)c1      log10(IC50)          0.15
7  N=C(N)Nc1cccc(C(=O)NNC(=O)NC(CC(=O)O)c2ccc(OC(F)(F)F)cc2)c1 (stereo not drawn)      log10(IC50)         -2.52
